These data points were gathered from ChEMBL document CHEMBL1667794.

# TESTED ON: Dihydropteroate synthase (Bacillus anthracis)
# PROTOCOL NOTES: Inhibition of Bacillus anthracis DHPS at 200 uM
List of inhibition values.
Reply numerically in %, unit not repeated.

Example entries and their recorded answers appear below.
>  <COMPOUND>
Nc1nc2c(c(=O)[nH]1)C[C@@H](N(CCCP(=O)(O)O)Cc1ccc(C(=O)O)cc1)CN2

>  <MEASURE UNIT>
%

>  <READOUT VALUE>
3.9

$$$$
>  <COMPOUND>
Nc1nc2ncc(N(CCCP(=O)(O)O)Cc3ccc(C(=O)O)cc3)cc2c(=O)[nH]1

>  <MEASURE UNIT>
%

>  <READOUT VALUE>
32.9

$$$$
>  <COMPOUND>
Nc1nc2ncc(N(CCP(=O)(O)O)Cc3ccc(C(=O)O)cc3)cc2c(=O)[nH]1

>  <MEASURE UNIT>
%

>  <READOUT VALUE>
16.3

$$$$

Please report the measured inhibition for Nc1nc2c(c(=O)[nH]1)CC(N(CCP(=O)(O)O)Cc1ccc(C(=O)O)cc1)CN2 (centres undefined) 3.6
